The reported measurements were obtained from the supplement of paper PMC10307832.

Consider the following molecules and their measured relative viability readings.
- System: HCC-366
- TEST: relative viability (nuclei count vs DMSO), 5 days (fraction); higher = more cells survive
- EXPERIMENTAL_CONDITIONS: first compound 2.53 µM
Simply state the number, no unit and no words.

Example entries begin here.
MOLECULE: COc1nc(C)cnc1NS(=O)(=O)c1cccnc1-c1ccc(-c2nnco2)cc1 [Zibotentan] + O=C(CCCCCCC(=O)Nc1ccccc1)NO [Vorinostat] (partner 1 µM)
relative viability: 0.358
//
MOLECULE: COc1nc(C)cnc1NS(=O)(=O)c1cccnc1-c1ccc(-c2nnco2)cc1 [Zibotentan] + Cc1nc(Nc2ncc(C(=O)Nc3c(C)cccc3Cl)s2)cc(N2CCN(CCO)CC2)n1 [Dasatinib] (partner 0.075 µM)
relative viability: 0.652
//
MOLECULE: COc1nc(C)cnc1NS(=O)(=O)c1cccnc1-c1ccc(-c2nnco2)cc1 [Zibotentan] + CS(=O)(=O)N1CCN(Cc2cc3nc(-c4cccc5[nH]ncc45)nc(N4CCOCC4)c3s2)CC1 [Pictilisib] (partner 1 µM)
relative viability: 0.148
//
MOLECULE: COc1nc(C)cnc1NS(=O)(=O)c1cccnc1-c1ccc(-c2nnco2)cc1 [Zibotentan] + C[C@]1(O)C[C@@H](c2nc(-c3ccc4ccc(-c5ccccc5)nc4c3)c3c(N)nccn32)C1 [Linsitinib] (partner 1 µM)
relative viability: 0.794
//
MOLECULE: O=c1cc(-c2cccc3c2Sc2ccccc2S3)oc(N2CCOCC2)c1 + C[C@@H](Oc1cc(-c2cnn(C3CCNCC3)c2)cnc1N)c1c(Cl)ccc(F)c1Cl [Crizotinib] (partner 1 µM)
relative viability: 0.498

Query :: Data request, read-out relative viability, for COc1nc(C)cnc1NS(=O)(=O)c1cccnc1-c1ccc(-c2nnco2)cc1 [Zibotentan] + O=C(c1cc(Cc2n[nH]c(=O)c3ccccc23)ccc1F)N1CCN(C(=O)C2CC2)CC1 [Olaparib] (partner 8 µM)
Result :: 0.365

Query :: Query (molecule): O=c1cc(-c2cccc3c2Sc2ccccc2S3)oc(N2CCOCC2)c1 + Nc1nc2[nH]cc(CCc3ccc(C(=O)N[C@@H](CCC(=O)O)C(=O)O)cc3)c2c(=O)[nH]1 [Pemetrexed] (partner 0.2 µM) ; field requested: relative viability
Result :: 0.154

Query :: Any idea what relative viability was measured for O=c1cc(-c2cccc3c2Sc2ccccc2S3)oc(N2CCOCC2)c1 + COc1cc2c(Oc3ccc(NC(=O)C4(C(=O)Nc5ccc(F)cc5)CC4)cc3F)ccnc2cc1OCCCN1CCOCC1 [Foretinib] (partner 0.25 µM) ?
Result :: 0.903

Query :: Suppose we examine the molecule COc1nc(C)cnc1NS(=O)(=O)c1cccnc1-c1ccc(-c2nnco2)cc1 [Zibotentan] + CC(=O)c1c(C)c2cnc(Nc3ccc(N4CCNCC4)cn3)nc2n(C2CCCC2)c1=O [Palbociclib] (partner 0.5 µM) ; what relative viability value has been reported?
Result :: 0.4

* * *

relative viability reference
- Tested on: HCC-15
- TEST: relative viability (nuclei count vs DMSO), 5 days (fraction); higher = more cells survive
- EXPERIMENTAL_CONDITIONS: first compound 0.253 µM
Just the number, please, no unit after it.

// below: answered molecules
MOLECULE: O=c1cc(-c2cccc3c2Sc2ccccc2S3)oc(N2CCOCC2)c1 + O=C(CCCCCCC(=O)Nc1ccccc1)NO [Vorinostat] (partner 1 µM)
READOUT_VALUE: 0.952
--
MOLECULE: COc1nc(C)cnc1NS(=O)(=O)c1cccnc1-c1ccc(-c2nnco2)cc1 [Zibotentan] + CC1(C)CCC(c2ccc(Cl)cc2)=C(CN2CCN(c3ccc(C(=O)NS(=O)(=O)c4ccc(N[C@H](CCN5CCOCC5)CSc5ccccc5)c(S(=O)(=O)C(F)(F)F)c4)cc3)CC2)C1 [Navitoclax] (partner 0.5 µM)
READOUT_VALUE: 0.656

Query :: So what does the record say about relative viability for COc1nc(C)cnc1NS(=O)(=O)c1cccnc1-c1ccc(-c2nnco2)cc1 [Zibotentan] + CS(=O)(=O)CCNCc1ccc(-c2ccc3ncnc(Nc4ccc(OCc5cccc(F)c5)c(Cl)c4)c3c2)o1 [Lapatinib] (partner 2 µM) ?
Result :: 0.858

* * *

- Test system: NCI-H1666
- TEST: relative viability (nuclei count vs DMSO), 5 days (fraction); higher = more cells survive
- EXPERIMENTAL_CONDITIONS: first compound 20 µM
relative viability values by entry
Lab note: record the figure alone, no unit after it.

The examples below pair each entry with its known result.
COMPOUND: COCC1(CO)C(=O)C2CCN1CC2 (configuration not stated) [PRIMA-1MET] + Cc1nc(Nc2ncc(C(=O)Nc3c(C)cccc3Cl)s2)cc(N2CCN(CCO)CC2)n1 [Dasatinib] (partner 0.075 µM)
EXPERIMENTAL_TARGET: NCI-H1666
MEASUREMENT_TYPE: relative viability
READOUT_VALUE: 0.639

COMPOUND: COCC1(CO)C(=O)C2CCN1CC2 (configuration not stated) [PRIMA-1MET] + CC1(C)CCC(c2ccc(Cl)cc2)=C(CN2CCN(c3ccc(C(=O)NS(=O)(=O)c4ccc(N[C@H](CCN5CCOCC5)CSc5ccccc5)c(S(=O)(=O)C(F)(F)F)c4)cc3)CC2)C1 [Navitoclax] (partner 0.5 µM)
EXPERIMENTAL_TARGET: NCI-H1666
MEASUREMENT_TYPE: relative viability
READOUT_VALUE: 0.249

COMPOUND: COCC1(CO)C(=O)C2CCN1CC2 (configuration not stated) [PRIMA-1MET] + O=C(c1cc(Cc2n[nH]c(=O)c3ccccc23)ccc1F)N1CCN(C(=O)C2CC2)CC1 [Olaparib] (partner 8 µM)
EXPERIMENTAL_TARGET: NCI-H1666
MEASUREMENT_TYPE: relative viability
READOUT_VALUE: 0.739

COMPOUND: COCC1(CO)C(=O)C2CCN1CC2 (configuration not stated) [PRIMA-1MET] + CS(=O)(=O)CCNCc1ccc(-c2ccc3ncnc(Nc4ccc(OCc5cccc(F)c5)c(Cl)c4)c3c2)o1 [Lapatinib] (partner 2 µM)
EXPERIMENTAL_TARGET: NCI-H1666
MEASUREMENT_TYPE: relative viability
READOUT_VALUE: 0.275

COMPOUND: COCC1(CO)C(=O)C2CCN1CC2 (configuration not stated) [PRIMA-1MET] + CC(=O)c1c(C)c2cnc(Nc3ccc(N4CCNCC4)cn3)nc2n(C2CCCC2)c1=O [Palbociclib] (partner 0.5 µM)
EXPERIMENTAL_TARGET: NCI-H1666
MEASUREMENT_TYPE: relative viability
READOUT_VALUE: 0.695

COMPOUND: COCC1(CO)C(=O)C2CCN1CC2 (configuration not stated) [PRIMA-1MET] + COc1cc2c(Oc3ccc(NC(=O)C4(C(=O)Nc5ccc(F)cc5)CC4)cc3F)ccnc2cc1OCCCN1CCOCC1 [Foretinib] (partner 0.25 µM)
EXPERIMENTAL_TARGET: NCI-H1666
MEASUREMENT_TYPE: relative viability
READOUT_VALUE: 0.908

Next compound, please.
Query :: Need relative viability of COCC1(CO)C(=O)C2CCN1CC2 (configuration not stated) [PRIMA-1MET] + N=C(N)NC(=N)NCCc1ccccc1 [Phenformin] (partner 250 µM) , thanks.
Result :: 0.564

* * *

- Tested on: NCI-H23
- TEST: relative viability (nuclei count vs DMSO), 5 days (fraction); higher = more cells survive
- EXPERIMENTAL_CONDITIONS: first compound 0.8 µM
Threshold 0.5: relative viability strictly smaller gives class 1, otherwise class 0.

Here are 3 compounds together with their reported answers.
COMPOUND: COc1nc(C)cnc1NS(=O)(=O)c1cccnc1-c1ccc(-c2nnco2)cc1 [Zibotentan] + Cc1cc(Nc2cc(N3CCN(C)CC3)nc(Sc3ccc(NC(=O)C4CC4)cc3)n2)n[nH]1 [Tozasertib] (partner 0.1 µM)
DISCRETE_LABEL: class 1
//
COMPOUND: O=c1cc(-c2cccc3c2Sc2ccccc2S3)oc(N2CCOCC2)c1 + CCNC(=O)c1noc(-c2cc(C(C)C)c(O)cc2O)c1-c1ccc(CN2CCOCC2)cc1 [Luminespib] (partner 0.01 µM)
DISCRETE_LABEL: class 1
//
COMPOUND: O=c1cc(-c2cccc3c2Sc2ccccc2S3)oc(N2CCOCC2)c1 + COc1cc2c(Oc3ccc(NC(=O)C4(C(=O)Nc5ccc(F)cc5)CC4)cc3F)ccnc2cc1OCCCN1CCOCC1 [Foretinib] (partner 0.25 µM)
DISCRETE_LABEL: class 0

API: the following record is the query input.
Query :: Answer whether the compound COc1nc(C)cnc1NS(=O)(=O)c1cccnc1-c1ccc(-c2nnco2)cc1 [Zibotentan] + CC(=O)c1c(C)c2cnc(Nc3ccc(N4CCNCC4)cn3)nc2n(C2CCCC2)c1=O [Palbociclib] (partner 0.5 µM) has relative viability strictly less than 0.5
Result :: class 0
